Tested on: Preformed immune complex of peroxidase and rabbit anti-peroxidase IgG (PAP complex) (horseradish) (UniProt P00433)
Sequence (P00433 31-338, one chain of several): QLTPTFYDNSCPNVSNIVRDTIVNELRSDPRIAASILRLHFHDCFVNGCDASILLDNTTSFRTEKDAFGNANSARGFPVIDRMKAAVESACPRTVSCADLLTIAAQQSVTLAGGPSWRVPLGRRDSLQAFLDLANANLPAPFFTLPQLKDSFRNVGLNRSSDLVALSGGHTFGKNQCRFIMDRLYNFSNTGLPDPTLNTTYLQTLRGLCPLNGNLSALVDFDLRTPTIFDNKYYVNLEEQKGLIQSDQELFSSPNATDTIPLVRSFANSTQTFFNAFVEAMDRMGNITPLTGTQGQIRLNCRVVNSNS
Test: competition reverse ELISA: PAP pre-incubated with peptide, residual PAP binding to FcγIII-coated plate
No end group written: not given here.
Outcome measure: OD 405 nm (OD)

Before answering, review these 3 worked examples.
> print(dat)
                                     binder  outcome.measure  number
1  APPCARHLGELVWCT (not fully specified; cysteine pairing not given here) [Peptide … (SEQ ID NO:14)]        OD 405 nm   0.709
2  APPDCAWHLGELVWCT [Peptide … (SEQ ID NO:16)]        OD 405 nm    0.67
3  APPCAFHLGELVWCT (not fully specified; cysteine pairing not given here) [Peptide … (SEQ ID NO:15)]        OD 405 nm    0.88

P. DCAFHLGELVWCT [Peptide … (SEQ ID NO:3)]
Q. APPCAWHLGELVWCT (not fully specified; cysteine pairing not given here) [Peptide … (SEQ ID NO:13)]
Query string: Which value of OD 405 nm is numerically greater: that of P or that of Q ? # reply format: chosen label
Result string: P
(P: 0.81 OD, Q: 0.53 OD)
